Field: Kd. Provide a value for each of the binders that follow.
system: T1, human IL6 protein, His and GST tags (active) (GTX00094-pro: GeneTex, Inc.) (human, UniProt P05231 30-212, limits assumed)
T1 construct: Bought reagent; not shown: His and GST tags
experimentDescription: SPR (Biacore 8K), antigen immobilized on CM4 chip, antibody as analyte
Number in nM, nothing else.

Q. Fill in the blank: the reported Kd of R5 variant of anti-IL-6 antibody (clone 44-15) (Fab, V domains shown, not shown: a dimerising Fc or GST, Light chain positions 63, 65, 67, 70, 72 (Chothia) changed to Arg; Fab) VH: DVQLQESGPGLVKPSQTVSLTCTVTGISITTGNYRWSWIRQFPGNKLEWIGYIYYSGAITYNPSLTSRTTITRDTSMNQFFLEMISLTAEDTATYYCARDRYDYAVDFWGQGTSVTVSS VL: DIQMTQSPASLSASVGETVTITCRSSENIYSFLTWFQQRQGKSPHLLVYYANTLAEGVPSRFRGRGRGTRFRLQINSLQPEDFGTYYCQHHYGTPWTFGGGTRLEIKR is ____.
A. 4.4

Q. Fill in the blank: the reported Kd of R4 variant of anti-IL-6 antibody (clone 44-15) (Fab, V domains shown, not shown: a dimerising Fc or GST, Light chain positions 63, 65, 67, 70 (Chothia) changed to Arg; Fab) VH: DVQLQESGPGLVKPSQTVSLTCTVTGISITTGNYRWSWIRQFPGNKLEWIGYIYYSGAITYNPSLTSRTTITRDTSMNQFFLEMISLTAEDTATYYCARDRYDYAVDFWGQGTSVTVSS VL: DIQMTQSPASLSASVGETVTITCRSSENIYSFLTWFQQRQGKSPHLLVYYANTLAEGVPSRFRGRGRGTRFSLQINSLQPEDFGTYYCQHHYGTPWTFGGGTRLEIKR is ____.
A. 8.38

Q. Fill in the blank: the reported Kd of R3 variant of anti-IL-6 antibody (clone 44-15) (Fab, V domains shown, not shown: a dimerising Fc or GST, Light chain positions 63, 65, 67 (Chothia) changed to Arg; Fab) VH: DVQLQESGPGLVKPSQTVSLTCTVTGISITTGNYRWSWIRQFPGNKLEWIGYIYYSGAITYNPSLTSRTTITRDTSMNQFFLEMISLTAEDTATYYCARDRYDYAVDFWGQGTSVTVSS VL: DIQMTQSPASLSASVGETVTITCRSSENIYSFLTWFQQRQGKSPHLLVYYANTLAEGVPSRFRGRGRGTQFSLQINSLQPEDFGTYYCQHHYGTPWTFGGGTRLEIKR is ____.
A. 7.16
